System: NCI-H322M lung
ASSAY_METHOD_TEXT: NCI-60 one-dose screen, 48 h (100 = growth as untreated, 0 = no growth, -100 = all killed)
SETUP_CONDITIONS: 10 µM unless noted
Protocol: Growth inhibition of the NCI-H322M human Non-Small Cell Lung tumor cell line is measured as a screen for anti-cancer activity. Cells are grown in 96 well plates and exposed to the test compound for 48 hours. Compounds are tested at a single concentration, which is 10^-5 M for most compounds. The reported endpoint is percent growth (GI% or GIPRCNT), where numbers from 0 - 100% represent growth inhibition, and numbers from -100% - 0 represent cell death. […]
The panel holds about 83,000 compounds, 20% with a hit somewhere; the sample as a whole holds those more often.
Please provide measured growth for the entries that follow.
Give the number; % is assumed, so skip it.

Input line: Return the recorded growth value; entry: O=C(CSc1nc2ccccc2c(=O)n1-c1ccccc1)N/N=C/c1ccc(Oc2ccc(Cl)cc2)cc1
Output line: 84.5

Input line: Return the recorded growth value; entry: C#C[C@]1(O)CC[C@H]2[C@@H]3CC=C4c5sc(N(C)c6ccccc6)nc5CC[C@]4(C)[C@H]3CC[C@@]21C
Output line: 103

Input line: Return the recorded growth value; entry: CC(=O)N(O)CCCCCNC(=O)CCC(=O)N(O)CCCCCNC(=O)CCC(=O)N(O)CCCCCN(CCCCCCCCCC[P+](c1ccccc1)(c1ccccc1)c1ccccc1)CCCCCCCCCC[P+](c1ccccc1)(c1ccccc1)c1ccccc1
Output line: -28.9

----------
Tested on: HT29 colon
ASSAY_METHOD_TEXT: NCI-60 one-dose screen, 48 h
SETUP_CONDITIONS: 10 µM unless noted
The panel holds about 83,000 compounds, 20% with a hit somewhere; the sample as a whole holds those more often. Active and inactive are the calls of the source. The calls were made as follows: active = growth percent below 10; inactive = the rest.
Field 'call' accepts class 1 (active), class 0 (inactive)

Input line: Hello, I am checking results. What call was entered for C#CCOc1ccc(-c2csc(NC(=O)C=C)n2)cc1NS(=O)(=O)c1cccc2c(N(C)C)cccc12 ?
Output line: class 0

Input line: Hello, I am checking results. What call was entered for NC(=O)c1ncn2c(=O)n(CCF)nnc12 ?
Output line: class 0

Input line: Hello, I am checking results. What call was entered for CC(C)NC(=O)c1cc(-c2ccc(NC(=O)Nc3ccc(F)c(C(F)(F)F)c3)cc2)nc2cccnc12 ?
Output line: class 0

Input line: Hello, I am checking results. What call was entered for N#Cc1cccc(-c2cc(-c3ccc4c(c3)OCCO4)[nH]n2)c1 ?
Output line: class 0

Input line: Hello, I am checking results. What call was entered for CCC(=C(c1ccc(OCCN2CCCCCC2)cc1)c1ccc(OCCN2CCCCCC2)cc1)c1ccc(Cl)cc1 ?
Output line: class 1

Input line: Hello, I am checking results. What call was entered for CS(=O)(=O)c1ccc(/C(=N/N=C(N)N)c2ccc(Cl)cc2)cc1 ?
Output line: class 0

Input line: Hello, I am checking results. What call was entered for Cc1ccc(C(=O)Nc2ccc(CNCCN3CCNCC3)c(C(F)(F)F)c2)cc1C#Cc1cnc2cccnn12 ?
Output line: class 1

Input line: Hello, I am checking results. What call was entered for Cc1[nH]c(C(=O)Nc2ccccc2OCc2cccc(C(=O)NC3CCNC3)c2)c(Cl)c1Cl (stereo unspecified) ?
Output line: class 1

Input line: Hello, I am checking results. What call was entered for CN1CCN(c2ccc(C(=O)/C=C/c3cc(F)cc(C(F)(F)F)c3)cc2)CC1 ?
Output line: class 0

Input line: Hello, I am checking results. What call was entered for O=C(CSc1nnc(-c2cccs2)n1-c1ccccc1)Nc1ccccc1 ?
Output line: class 0

Input line: Hello, I am checking results. What call was entered for C#CCOc1ccc(/C=N/Nc2nc(-c3ccc(OC)cc3)cs2)cc1 ?
Output line: class 0

Input line: Hello, I am checking results. What call was entered for Cc1ccc2c(n1)C(=O)C(Cl)=C(Nc1cccc(C(F)(F)F)c1)C2=O ?
Output line: class 0

Input line: Hello, I am checking results. What call was entered for C#C[C@]1(O)CC[C@H]2[C@@H]3CC=C4c5sc(Nc6ncccc6C)nc5CC[C@]4(C)[C@H]3CC[C@@]21C ?
Output line: class 0

Input line: Hello, I am checking results. What call was entered for O=C(CCCCCCNC(=O)C(O)(O)C(F)(F)F)Nc1ccc(-c2ccccc2)cc1 ?
Output line: class 1

Input line: Hello, I am checking results. What call was entered for C/C(=N\NC(N)=S)c1nnn(-c2ccc([N+](=O)[O-])cc2)c1C ?
Output line: class 0

Input line: Hello, I am checking results. What call was entered for O=C(CSc1nc2ccccc2c(=O)n1-c1ccccc1)N/N=C/c1ccc(Oc2ccc(Cl)cc2)cc1 ?
Output line: class 0

Input line: Hello, I am checking results. What call was entered for CC(C)(C)c1cc(NC(=O)Nc2ccc(-c3cn4c5c(sc4n3)CCc3cn(CCCN4CCCCC4)cc3-5)cc2)no1 ?
Output line: class 1

Input line: Hello, I am checking results. What call was entered for O=C(Nc1ccc(N2CCOCC2)cc1)Nc1ccc2c(ccn2C(=O)c2cccc(F)c2)c1 ?
Output line: class 0

Input line: Hello, I am checking results. What call was entered for COc1ccc(-c2c(C(N)=O)c(N)n(Cc3nc4ccccc4[nH]3)c(=O)c2C#N)c(OC)c1 ?
Output line: class 0

Input line: Hello, I am checking results. What call was entered for C[C@]12CC[C@H]3[C@@H](CC=C4C[C@@H](O)CC[C@@]43C)[C@@H]1CC[C@@H]2[C@](C)(O)CCc1cccnc1 ?
Output line: class 0

Input line: Hello, I am checking results. What call was entered for COc1ccc(C2CC(c3cccc(OCCCCOc4cccc(C5=NN(C(C)=O)C(c6ccc(OC)cc6)C5)c4)c3)=NN2C(C)=O)cc1 (stereo unspecified) ?
Output line: class 0

Input line: Hello, I am checking results. What call was entered for COc1ccc2[nH]cc(-c3nc(N)nnc3-c3cn(C)c4ccc(Br)cc34)c2c1 ?
Output line: class 1

Input line: Hello, I am checking results. What call was entered for NS(=O)(=O)c1ccc(Nc2nc(N/N=C/c3ccc4c(c3)OCO4)nc(Nc3ccccc3)n2)cc1 ?
Output line: class 0

Input line: Hello, I am checking results. What call was entered for CCN(CC)c1ccc(/C=N/NC(=O)c2ccc(NS(C)(=O)=O)cc2)c(O)c1 ?
Output line: class 0

Input line: Hello, I am checking results. What call was entered for CC(=O)Nc1cc(N2CCOCC2)c2nc(NC(=O)c3[nH]c(C)c(Cl)c3Cl)sc2c1 ?
Output line: class 0

Input line: Hello, I am checking results. What call was entered for Cc1ccc([C@H]2c3[nH]c4ccccc4c3C[C@H]3C(=O)N(CCCCCCC(=O)NO)CC(=O)N23)s1 ?
Output line: class 0

Input line: Hello, I am checking results. What call was entered for O=c1c2cc(-c3ccc(F)cc3F)ccc2n(Nc2ccccc2)c(=O)n1-c1cccc(C(F)(F)F)c1 ?
Output line: class 0

Input line: Hello, I am checking results. What call was entered for CN1CCN(c2ccc(Nc3nc(NCCNS(=O)(=O)c4ccccc4)c4sccc4n3)cc2)CC1 ?
Output line: class 0

Input line: Hello, I am checking results. What call was entered for CCNC(=O)Oc1ccc(/C(=C(/C)c2ccc(OC)cc2)c2ccc(OCCN3CCCCCC3)cc2)cc1 ?
Output line: class 0

Input line: Hello, I am checking results. What call was entered for CN1CCN(c2ccc(Nc3nc(NCCCNS(=O)(=O)c4ccc(Cl)cc4)c4sccc4n3)cc2)CC1 ?
Output line: class 1

Input line: Hello, I am checking results. What call was entered for CC(C)=CCC[C@](C)(O)[C@H]1CC[C@]2(C)[C@@H]1CC[C@@H]1[C@@]3(C)CC[C@H](N)C(C)(C)[C@@H]3CC[C@]12C ?
Output line: class 0

Input line: Hello, I am checking results. What call was entered for Oc1[nH]c2ccc(Cl)cc2c1N=Nc1nc(N=Nc2c(O)[nH]c3ccc(Cl)cc23)nc(N2CCCCC2)n1 ?
Output line: class 0

Input line: Hello, I am checking results. What call was entered for O=C(/C=C/c1cccc(F)c1)c1cccc(OCCCOc2cccc(C(=O)/C=C/c3cccc(F)c3)c2)c1 ?
Output line: class 1

Input line: Hello, I am checking results. What call was entered for Cc1cc2nc3c4cc(C#N)ccc4n(CCN(C)C)c3nc2cc1C ?
Output line: class 1

Input line: Hello, I am checking results. What call was entered for O=C(/C=C/c1ccccc1)c1cccc(O)c1 ?
Output line: class 0

Input line: Hello, I am checking results. What call was entered for COc1ccc(OC)c(NC(=O)CCCCCCNC(=O)C(O)(O)C(F)(F)F)c1 ?
Output line: class 0

----------
System: LOX IMVI melanoma
ASSAY_METHOD_TEXT: NCI-60 one-dose screen, 48 h (100 = growth as untreated, 0 = no growth, -100 = all killed)
SETUP_CONDITIONS: 10 µM unless noted
This is part of a sample that, as a whole, favours compounds with a hit. Of some 83,000 tested, about 20% had one in any assay.
Quick rule for you: growth at 50% or higher means MET, lower means NOT MET.

Input line: Textbook exercise: given the entry N#C/C(=N\Nc1ccc(F)cc1)C(=O)Nc1cc(-c2ccccc2)nn1-c1ccccc1 , state whether its growth is greater than or equal to 50%.
Output line: NOT MET

Input line: Textbook exercise: given the entry COc1ccc(/C=N\NC(=O)c2cnn(CC(O)c3ccccc3)c2N)cc1OCc1ccc(Cl)cc1 (stereo not given) , state whether its growth is greater than or equal to 50%.
Output line: MET

Input line: Textbook exercise: given the entry C#CCN(C)CCCOc1ccc(NC(=O)CCCCCCCCC(=O)NO)cc1Cl , state whether its growth is greater than or equal to 50%.
Output line: NOT MET

Input line: Textbook exercise: given the entry CC(C)C(/C=C/c1[nH]ncc1-c1cc(Cl)ccc1O)N1CCOCC1 (stereo not given) , state whether its growth is greater than or equal to 50%.
Output line: MET

Input line: Textbook exercise: given the entry C#C[C@]1(O)CC[C@H]2[C@@H]3CC=C4c5sc(Nc6cc(C)cc(C)c6)nc5CC[C@]4(C)[C@H]3CC[C@@]21C , state whether its growth is greater than or equal to 50%.
Output line: NOT MET
